- ASSAY PROTOCOL: Enzyme stability in human liver S9 fractions
- Assay type: in vitro ADME
- CONDITION PARAMETERS: 0.5 mg/mL pooled human liver S9 fractions; 10 μM compound; 37° C.; pH 7.4; read-out: Stability in liver S9 fractions, Clint
- Protocol: Determination of enzyme stability. Measuring of candidate enzyme stability enabled estimation of the stability of the compounds towards the action of liver enzymes. […] Based on the data obtained, candidate enzyme stability in human liver S9 fractions was determined (see Table 11).
ASSAY METRIC: Intrinsic clearance in human liver S9 fractions at 10 µM (µL/min/mg)

(1) C=CC(=O)Nc1cc(Nc2nccc(C(=O)c3ccc(OC)cc3OC)n2)c(OC)cc1N(C)CCN(C)C
(2) C=CC(=O)Nc1cc(Nc2cc(C(=O)c3ccc(N4CCN(C)CC4)cc3)ccn2)c(OC)cc1N(C)CCN(C)C
## Input Could you tell me which of these two has the smaller Intrinsic clearance in human liver S9 fractions at 10 µM figure? First: 1 Second: 2 Field: selected label. Fill in the label of the entry you choose.
## Output 2
(2: 5 µL/min/mg, 1: 14.4 µL/min/mg)
